- assay target: T1, Sla1-3, P32790
- T1 sequence (P32790 344-424, looked up): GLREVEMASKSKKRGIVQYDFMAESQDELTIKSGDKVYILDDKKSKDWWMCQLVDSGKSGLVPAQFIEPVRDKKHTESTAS
- experiment description: SPOT array
- measurement parameters: median of control spots 5475
metric name: SPOT intensity
Write the value as a bare number.

For record "SKSRLLIELPEGFFT" the listed SPOT intensity is 0

For record "PIVPSSPAPPLPLSG" the listed SPOT intensity is 0

For record "ISPPASPPPEFDFSK" the listed SPOT intensity is 0

For record "HVRRSILALPLGVLL" the listed SPOT intensity is 0

For record "RPVPRRPSQPLNTLS" the listed SPOT intensity is 31

For the next question, use this binder.
For record "VNIPSPSSSPPPIPK" the listed SPOT intensity is 3
